# key: entry, value: abundance fitness
B1: Storkhead-box protein 2, residues 64 to 141; numbered along this chain, Q9P2F5 (parent)
chain: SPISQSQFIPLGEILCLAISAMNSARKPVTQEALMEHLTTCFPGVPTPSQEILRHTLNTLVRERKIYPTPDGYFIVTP

- Variants of: B1
- Assay Details: abundance fitness (aPCA) (normalised: wild type 0, dead -1); higher = more abundant; growth selection in yeast, the domain comes from the species named
- Experimental Conditions: Homo sapiens
The response must contain the number and no unit.

# annotated cases, reported abundance fitness shown
>>> print(df.to_string())
   residue_change             metric  measurement
0            E63K  abundance fitness        0.011
1            N23K  abundance fitness       -0.451
2            E13F  abundance fitness       -0.349
3            T59N  abundance fitness       -0.087
4            L57G  abundance fitness        -1.01

Ask: Answer with reported abundance fitness of `I3R`
Reply: -0.022

Ask: Answer with reported abundance fitness of `S4I`
Reply: -0.079

Ask: Answer with reported abundance fitness of `P10E`
Reply: -0.043

Ask: Answer with reported abundance fitness of `E36M`
Reply: -0.059

Ask: Answer with reported abundance fitness of `F74S`
Reply: 0.077
